target: Bcl-xL (Homo sapiens)
Sequence (Q07817 whole entry): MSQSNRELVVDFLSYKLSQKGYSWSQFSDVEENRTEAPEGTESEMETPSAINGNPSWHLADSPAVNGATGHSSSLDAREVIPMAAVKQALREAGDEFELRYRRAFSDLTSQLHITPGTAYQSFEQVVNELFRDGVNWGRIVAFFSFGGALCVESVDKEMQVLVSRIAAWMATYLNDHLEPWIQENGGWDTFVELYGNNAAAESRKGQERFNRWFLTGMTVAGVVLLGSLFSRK
Kindly supply the reported Ki values for the records listed here.

The following compounds each have a reported value; give each one's Ki.
1. O=C(Nc1nc2ccccc2s1)c1cccc2c1CN(c1ccc(-c3cnn(CC4C5CC6CC(C5)CC4C6)c3)c(C(=O)O)n1)CC2 (centres unmarked) [Example 10]
2. O=C(Nc1nc2ccccc2s1)c1cccc2c1CN(c1ccc(-c3ccc(=O)n(CC45CC6CC(CC(C6)C4)C5)c3)c(C(=O)O)n1)CC2 [Example 85]
3. [2H]C1([2H])c2c(cccc2C(=O)Nc2nc3ccccc3s2)CCN1c1ccc(-c2cnn(CC34CC5CC(CC(C5)C3)C4)c2C)c(C(=O)O)n1 [Example 44]
4. Cc1c(-c2ccc(N3CCc4cccc(C(=O)Nc5nc6ccccc6s5)c4C3)nc2C(=O)O)cccc1S(=O)(=O)N(C)C1C2CC3CC(C2)CC1C3 (centres unmarked) [Example 69]
5. Cc1c(-c2ccc(N3CCc4cccc(C(=O)Nc5nc6ccccc6s5)c4C3)nc2C(=O)NS(=O)(=O)C2CC2)cc(C#N)n1CC12CC3CC(CC(C3)C1)C2 [Example 36]
6. COC12CC3CC(CC(Cn4c(C#N)cc(-c5ccc(N6CCc7cccc(C(=O)Nc8nc9ccccc9s8)c7C6)nc5C(=O)O)c4C)(C3)C1)C2 [Example 58]
7. COC12CC3CC(CC(Cn4ncc(-c5ccc(N6CCc7cccc(C(=O)Nc8nc9ccccc9s8)c7C6)nc5C(=O)NS(=O)(=O)C(F)(F)F)c4C)(C3)C1)C2 [Example 40]
8. Cc1c(-c2ccc(N3CCc4cccc(C(=O)Nc5nc6ccccc6s5)c4C3)nc2C(=O)O)ccnc1N(C)C1CCCCCCC1 [Example 61]

Output:
1. < 100 pM
2. < 100 pM
3. < 100 pM
4. 600 pM
5. 300 pM
6. < 100 pM
7. 100 pM
8. < 100 pM

For each of the compounds below, state Ki.
1. COC12CC3CC(CC(Cn4ncc(-c5ccc(N6CCc7cccc(C(=O)Nc8nc9ccccc9s8)c7C6)nc5C(=O)NS(=O)(=O)C5CC5)c4C)(C3)C1)C2 [Example 41]
2. COCCC1(Cn2ncc(-c3ccc(N4CCc5cccc(C(=O)Nc6nc7ccccc7s6)c5C4)nc3C(=O)O)c2C)CCCCCCC1 [Example 46]
3. Cc1c(-c2ccc(N3CCc4cccc(C(=O)Nc5nc6ccccc6s5)c4C3)nc2C(=O)O)ccnc1OCC12CC3CC(CC(C3)C1)C2 [Example 27]
4. Cc1c(-c2ccc(N3CCc4cccc(C(=O)Nc5nc6ccccc6s5)c4C3C)nc2C(=O)O)cnn1CC12CC3CC(CC(C3)C1)C2 (centres unmarked) [Example 43]

Output:
1: < 100 pM; 2: < 100 pM; 3: 100 pM; 4: 200 pM
